# System: CMS
# Parameters: species or system AML cell lines (8); Primary HTS, single concentration about 10 uM, Cell Titer Glo viability; log10 luminescence, per cent inhibition relative to cycloheximide control
# REPORTED CONDITIONS: 72 h, relative to cycloheximide control, log10 luminescence; inhibitor
Where a name gives a salt, the structure may show the parent alone.
Consider the following molecules; for each one, report its CMS %inh.
Express your answer in %, writing the number without its unit.

IN: Tell me CMS %inh reported for `NC(N)=NCCS[C@@H](CC(=O)O)C(=O)O`
OUT: -0.9686

IN: Provide one value: measured CMS %inh of CC[N+](C)(CC)CCOC(=O)C(O)(c1ccccc1)C1CCCCC1 (stereo not shown) [SJ000555718-1, OXYPHENONIUM BROMIDE]
OUT: -0.491

IN: For `CC(C)=CCC/C(C)=C/CC/C(C)=C/CO` , write its CMS %inh.
OUT: -1.627

IN: Please give measured CMS %inh of the following entry: `CC(C)=CCC[C@]1(C)[C@@H](CC=C(C)C)C[C@@]2(CC=C(C)C)C(=O)[C@]1(C(=O)C(C)C)C(=O)C(CC=C(C)C)=C2O`
OUT: -0.1771

IN: Return CMS %inh for the following molecule: `COc1ccc(C(Cl)=C(c2ccc(OC)cc2)c2ccc(OC)cc2)cc1`
OUT: 1.562

IN: Assign CMS %inh to the following record: COc1c(N2CCNC(C)C2)c(F)cc2c(=O)c(C(=O)O)cn(C3CC3)c12 (stereo not shown)
OUT: -1.278

IN: # return recorded CMS %inh for input `CN(C)CCOc1ccc(-c2cc(-c3ccc4c(c3)CCC4=NO)c(-c3ccncc3)o2)cc1`
OUT: 6.225

IN: Return the recorded CMS %inh value; entry: Cc1ccc(/C=C2\CNC/C(=C\c3ccc(C)cc3)C2=O)cc1 [SJ000772404-1, NSC 632839 HYDROCHLORIDE]
OUT: 103.5

IN: Write down CMS %inh measured for item `CN1C[C@@H]2Cn3c(c(C4=C(c5cn(C)c6ccccc56)C(=O)NC4=O)c4ccccc43)C[C@H]2C1`
OUT: -1.372

IN: # return recorded CMS %inh for entry `COC(=O)c1ccc2c(c1)C(=Cc1cc(Br)c(O)c(Br)c1)C(=O)N2`
OUT: 10.7

###

# System: MV4-11
# Parameters: species or system AML cell lines (8); Primary HTS, single concentration about 10 uM, Cell Titer Glo viability; log10 luminescence, per cent inhibition relative to cycloheximide control
# REPORTED CONDITIONS: 72 h, relative to cycloheximide control, log10 luminescence, inhibitor, MV4-11 %inh, 10 µM
ASSAY READOUT: MV4-11 %inh (%)
// units = %; emit number, no label

IN: Using MV4-11 as the test system, report measured MV4-11 %inh of `CNC(=O)[C@@H](NC(=O)[C@H](CC(C)C)[C@H](O)C(=O)NO)C(C)(C)C` .
OUT: -4.036

IN: Send back MV4-11 MV4-11 %inh of COCCOC(=O)C1=C(C)NC(C)=C(C(=O)OC(C)C)C1c1cccc([N+](=O)[O-])c1 (stereo not drawn) [SJ000285435-10, NIMODIPINE] only.
OUT: 10.46

IN: Quote MV4-11 MV4-11 %inh for entry CO[C@H]1/C=C/O[C@@]2(C)Oc3c(C)c(O)c4c(O)c(c(/C=N/N5CCN(C6CCCC6)CC5)c(O)c4c3C2=O)NC(=O)/C(C)=C\C=C\[C@H](C)[C@H](O)[C@@H](C)[C@@H](O)[C@@H](C)[C@H](OC(C)=O)[C@@H]1C [SJ000556738-1, RIFAPENTINE] .
OUT: 4.97

IN: # return MV4-11 %inh for CO[C@H]1/C=C/O[C@@]2(C)Oc3c(C)c(O)c4c(O)c(c(/C=N/N5CCN(C6CCCC6)CC5)c(O)c4c3C2=O)NC(=O)/C(C)=C\C=C\[C@H](C)[C@H](O)[C@@H](C)[C@@H](O)[C@@H](C)[C@H](OC(C)=O)[C@@H]1C [SJ000556738-2, RIFAPENTINE] , test system: MV4-11
OUT: 5.68

IN: Give measured MV4-11 %inh for Cc1cccc(Nc2ccncc2S(=O)(=O)NC(=O)NC(C)C)c1 [SJ000286085-4, TORSEMIDE] (MV4-11).
OUT: 3.27

IN: Provide MV4-11 %inh, system MV4-11, entry Nc1ccc(S(=O)(=O)Nc2ccccn2)cc1 [SJ000285852-5, SULFAPYRIDINE]
OUT: 1.788
